The reported measurements were obtained from patent EP0390112B1.

Biological target: adenosine A-2 receptors (Rattus norvegicus)
Construct: the adenosine A-2 receptors prepared from animal brain membranes
Sequence (P30543 whole entry): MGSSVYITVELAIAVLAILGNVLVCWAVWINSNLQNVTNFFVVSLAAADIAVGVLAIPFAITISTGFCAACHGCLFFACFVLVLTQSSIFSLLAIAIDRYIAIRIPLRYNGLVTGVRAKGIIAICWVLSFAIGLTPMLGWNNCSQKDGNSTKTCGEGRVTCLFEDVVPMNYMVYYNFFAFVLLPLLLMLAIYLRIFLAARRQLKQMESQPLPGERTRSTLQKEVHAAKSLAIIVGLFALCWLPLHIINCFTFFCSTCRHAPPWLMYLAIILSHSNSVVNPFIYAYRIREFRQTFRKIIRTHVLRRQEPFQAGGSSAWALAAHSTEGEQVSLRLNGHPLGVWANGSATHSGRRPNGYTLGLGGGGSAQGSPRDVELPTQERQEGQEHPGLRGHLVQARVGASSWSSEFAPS
Test: Test for affinity for brain adenosine A-2 receptors ([3H]NECA competition)
Conditions: rat brain striatum membranes, 25°C, 60 minutes, read-out: A-2 Receptor Ki
pKi: −log10 of the molar value.
Observable: pKi

As a guide, the following entries are already answered.
CCCOc1nc(N[C@H](CO)Cc2ccccc2)c2cnn(-c3ccccc3)c2n1 ... 5.54
CCCOc1nc(N[C@H](CO)Cc2ccccc2)c2ncn([C@@H]3O[C@H](CO)[C@@H](O)[C@H]3O)c2n1 ... 5.72
CCCOc1nc(N[C@@H](CO)Cc2ccccc2)c2ncn([C@@H]3O[C@H](CO)[C@@H](O)[C@H]3O)c2n1 ... 4.76

1. CCCOc1nc(N[C@@H](CO)Cc2ccccc2)c2cnn(-c3ccccc3)c2n1
2. CCCOc1nc(N[C@H](C)Cc2ccccc2)c2cnn(-c3ccccc3)c2n1
Hi there! Just curious which has the higher pKi between 1 and 2 . Use the label to indicate which entry you chose.
1
